System: KaKa
assay details: Growth inhibition, MTT colorimetric assay, KaKa
Assay type: cell-based
particulars: 72 h, read-out: IC50 KaKa
result type: pIC50
In textbook form, pIC50 equals minus log to base ten of the concentration in mol/L.

Reported pIC50, compound Oc1ccc(CN(Cc2cccs2)Cc2ccc(O)c3ncccc23)c2cccnc12 [BPM18,202] : ____ 5.76

----------
Parameter pIC50: see the listing below.
Tested on: SKMEL28 (human melanoma)
assay details: Growth inhibition, MTT colorimetric assay, SKMEL-28
Type: cell-based
particulars: Homo sapiens, SK-MEL-28, 72 h; melanoma; 3 days with drug; means of six values; unit inferred; read-out: IC50 SKMEL-28
pIC50: −log10 of the molar value.

Example cases with answers are listed next.
molecule="Oc1ccc(CN(Cc2cccc(C(F)(F)F)c2)Cc2ccc(O)c3ncccc23)c2cccnc12 [BPM19,189]" result_type=pIC50 obs_value="< 5.00"
molecule="Oc1ccc(CN(Cc2ccccc2)Cc2ccc(O)c3ncccc23)c2cccnc12 [BPM18,725]" result_type=pIC50 obs_value="< 5.00"
molecule="O=C(O)C1CCC(CN(Cc2ccc(O)c3ncccc23)Cc2ccc(O)c3ncccc23)CC1 (stereo not drawn) [BPM19,225]" result_type=pIC50 obs_value="< 5.00"
molecule="Cc1ccc(CN(Cc2ccc(O)c3ncccc23)Cc2ccc(O)c3ncccc23)cc1 [BPM19,107]" result_type=pIC50 obs_value=5.32
molecule="Oc1ccc(CN(Cc2ccc(C(F)(F)F)cc2)Cc2ccc(O)c3ncccc23)c2cccnc12 [BPM18,708]" result_type=pIC50 obs_value="< 5.00"

Lab request: please report pIC50 under test system SKMEL28 (human melanoma) for Oc1ccc(CN(Cc2cccc(I)c2)Cc2ccc(O)c3ncccc23)c2cccnc12 [BPM19,200] 5.01

----------
Collected IC50 values appear next to each entry.
System: LoVo (colon cancer)
assay details: Growth inhibition, MTT colorimetric assay, LoVo
Format: cell-based
particulars: carcinoma; 3 days with drug; means of six values; unit inferred; read-out: IC50 LoVo
Procedure: A549 (human lung adenocarcinoma epithelial), BxPC3 (pancreatic cancer), LoVo (colon cancer), MCF-7 (epithelial breast cancer), PC3 (human prostate cancer), Hs683 (human glioma), T98G (glioblastoma), U373 (human glioblastoma-astrocytoma), U138 MG (human glioma), epithelial-like), SKMEL28 (human melanoma), B16-F10 (mouse melanoma) and RhTP (rhabdomyosarcoma) cell lines were cultured in presence of the drugs for 3 days. The cytotoxic activity is expressed as (IC50). […]
Field: numeric (nM). Do not append units.

smiles_text=Oc1ccc(CN(Cc2ccccc2C(F)(F)F)Cc2ccc(O)c3ncccc23)c2cccnc12 result_type=IC50 obs_value=93

// next entry
Given the compound Oc1ccc(CN(Cc2ccc(O)c3ncccc23)CC2CCCCC2)c2cccnc12 , what is its reported IC50? 357

----------
Test system: B16-F10 (mouse melanoma)
assay details: Growth inhibition, MTT colorimetric assay, B16F10
Type: cell-based
particulars: Mus musculus, B16-F10, 72 h, read-out: IC50 B16F10
result type: pIC50
The meaning of pIC50 here: minus log10 of the concentration in molar units.

Endpoint output: pIC50 of Oc1ccc(CN(Cc2cccs2)Cc2ccc(O)c3ncccc23)c2cccnc12 . Value? 7.07
